System: 873145-292-R-J1-PDC complex spheroid viability;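 note: luminescence signal used as surrogate for viable cell content; spheroids exposed to compounds for 7 days before viability readout; 100% = DMSO vehicle control viability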
Experiment: Anticancer human tumor 873145-292-R-J1-PDC patient-derived renal clear cell carcinoma cell line growth inhibition [POLQ]
Settings: second compound 0.0316 µM; first compound 0.001 µM; active compounds read low
Observed Property: viability, T/C (%)
Report as a plain number; the unit % is understood.

# example entries with known answers
Molecule: Cn1ncnc1[C@H]1c2n[nH]c(=O)c3cc(F)cc(c23)N[C@@H]1c1ccc(F)cc1 + COC1C(OC(N)=O)C(O)C(Oc2ccc3c(O)c(NC(=O)c4ccc(O)c(CC=C(C)C)c4)c(=O)oc3c2C)OC1(C)C
Target Or System: 873145-292-R-J1-PDC complex spheroid viability;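 note: luminescence signal used as surrogate for viable cell content; spheroids exposed to compounds for 7 days before viability readout; 100% = DMSO vehicle control viability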
viability, T/C (%): 102
--
Molecule: Cn1ncnc1[C@H]1c2n[nH]c(=O)c3cc(F)cc(c23)N[C@@H]1c1ccc(F)cc1 + Cc1cccc(N(C)C(=O)C2C(O)CCN2c2nc(C)cc(C(F)(F)F)c2C#N)c1
Target Or System: 873145-292-R-J1-PDC complex spheroid viability;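 note: luminescence signal used as surrogate for viable cell content; spheroids exposed to compounds for 7 days before viability readout; 100% = DMSO vehicle control viability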
viability, T/C (%): 94

// below: viability, T/C requested for another molecule
CC[C@@]1(O)C(=O)OCc2c1cc1n(c2=O)Cc2cc3c(CN(C)C)c(O)ccc3nc2-1 + Cc1cccc(N(C)C(=O)C2C(O)CCN2c2nc(C)cc(C(F)(F)F)c2C#N)c1 on 873145-292-R-J1-PDC complex spheroid viability gives viability, T/C = 95.2
